# Tested on: MS2 coat protein
# protocolText: apparent KD of MS2 coat protein; designed switch direction (-1 OFF switch, 1 ON switch): -1; higher = weaker reporter binding
# conditionDescription: input ligand: FMN 200 uM
This listing pairs sequences with measured apparent KD of MS2 coat protein.
experimentalEndpoint: apparent KD of MS2 coat protein (nM)

{"primarySequence": "GCUACCAGAGUGAGGAUAUCGGAUGCGCAAGCACACGAGAAGGCACAUGAGGAUCACCCAUGUAUGGUAGCCGU [eternacac ex4r4 #9] (Eterna round: R97, puzzle: Brourd's mod of Exclusion 4)", "experimentalEndpoint": "apparent KD of MS2 coat protein", "number": 13.2}
{"primarySequence": "AAAACGUCAGGAUAUACAGAAGAGAUCACAAAAAAAAAAAAACAUGAGGAUCACCCAUGUAGAAGGGACAAAAA [Ex2 Malc#2] (Eterna round: R96, puzzle: Exclusion 2)", "experimentalEndpoint": "apparent KD of MS2 coat protein", "number": 185}
{"primarySequence": "UCAUGUCCUGAGGAUAUGUAGCGGAUAAACGCAACAGAAGGCAGGACAUGAGGAUCACCCAUGUGCGCCUUUCA [Exclusion 6 Mod2 of JL of Mod of Letion by ViennaUCT] (Eterna round: R97, puzzle: Exclusion 6)", "experimentalEndpoint": "apparent KD of MS2 coat protein", "number": 26.7}

---

This listing pairs sequences with measured apparent KD of MS2 coat protein.
# System: MS2 coat protein
# protocolText: apparent KD of MS2 coat protein; higher = weaker reporter binding
# conditionDescription: Eterna round: R107; input ligand: theophylline 20 uM
experimentalEndpoint: apparent KD of MS2 coat protein (µM)

{"primarySequence": "AAGCUUCGCAUAGGAAAACUAUGUGAAGCUCGAGGACCGGUACGGCCGCCACUCGUCCUCAACAUGAGGAUCACCCAUGUAAUAA [Mat - Exclusion - Trytophan A - D2]", "experimentalEndpoint": "apparent KD of MS2 coat protein", "number": 0.0286}
{"primarySequence": "ACUAGGCUCGGAAACGAGCCUAGGACAGAAGGAGCGUGGAUUAACACAGGUAGGUCGCUGACAUGAGGAUCACCCAUGUAUUUAU [SSAA #5]", "experimentalEndpoint": "apparent KD of MS2 coat protein", "number": 0.0312}
{"primarySequence": "UGUAUGUGAUUUGAUACCAGUCCAACUGGUAAAACAUGAGGAUCACCCAUGUAAAAUUGGGACCCUUGGCAGCAAAUCGCAUACU [SSTheo B #21]", "experimentalEndpoint": "apparent KD of MS2 coat protein", "number": 0.346}

---

This listing pairs sequences with measured apparent KD of MS2 coat protein.
# Tested on: MS2 coat protein
# protocolText: apparent KD of MS2 coat protein; higher = weaker reporter binding
# conditionDescription: Eterna round: R107; input ligand: theophylline 20 uM
experimentalEndpoint: apparent KD of MS2 coat protein (nM)

{"primarySequence": "GUAAUUAUAAGAAGGAGCGUCGAAAAUGGGUAAACAUGAGGAUCACCCAUGUAAAGGGAACGACAGGUAGGUCGCUUAUGAUUAC [AstromonsSSArgB#22]", "number": 164}
{"primarySequence": "AAGACGGUCGGAAGGAGCGGUACAUGAGGAUCACCCAUGUACUCCUGGGCAUCCGUAGUGUGCCAGGUAGGUCGCCGAUUGCGGG [XArg-B14]", "number": 22.9}
{"primarySequence": "CGGUGUAGGGUUAAUAGGCUGAGUACAGAAGGAGCGCGAAUAAACGCAGGUAGGUCGCUGGCGAACAUGAGGAUCACCCAUGUAU [Same State Arginine A GF 30]", "number": 24}
{"primarySequence": "UGUUUGGUGCGCGAGUGUUGGAUAAUUGAUACCAGUGUAGAUGUGCGCCCUUGGCAGCGAAUCCGAACAUGAGGAUCACCCAUGU [5.Z]", "number": 32.3}
{"primarySequence": "GUCCACAGCCGAAGGAGCGCUAGAAGAUGACAUGAGGAUCACCCAUGUGUGUGGUGUGGCUAGCAGGUAGGUCGCGGAGUGGAUU [Exclusion - Arginine B (Freestyle 15)]", "number": 59.3}
{"primarySequence": "AGUCUUGAACGAAGGAGCGACGUACAUGAGGAUCACCCAUGUGGGAGCGAAAGCUCCUAACGUCAGGUAGGUCGCGUUCGAGACA [Omei Arginine B SS A v1]", "number": 21.9}
{"primarySequence": "ACGUAUGUCAGAAGGAGCGUCAAUAACAUGAGGAUCACCCAUGUAUUACAUAGGUAUAAUAGACAGGUAGGUCGCUGAAUUCGAA [JR_SSArginiB_Sub022]", "number": 46.4}
{"primarySequence": "CAAAAUAUCGGAAGGAGCGCGGGUAGGCGGGUUGGAUCACAUGAGGAUCACCCAUGUAAAUCGCAGGUAGGUCGCCGAUAACGCG [XArg-B27]", "number": 60.4}
{"primarySequence": "UUUUAACAUGAGGAUCACCCAUGUAAUGAUACCAGAGACGAAAGUCUCCCUUGGCAGCAUAAUCAUUACAUGAGAUGGAAACAUC [Theophylline A 7]", "number": 48.5}
{"primarySequence": "CGGGAACGAUAUGAUACCAGCCUGCGAAAGAAUGCUUAGUACAUGAGGAUCACCCAUGUAGGCCCUUGGCAGCAUCGACUCAAGU [theeternabot_exclusion_MS2_Theo_B_4]", "number": 18.1}
{"primarySequence": "UGUAUGGACUGAAGGAGCGCCUCAAAAUAGCAUGAGGAUCACCCAUGCAAGGCGAAAGCCGGGCAGGUAGGUCGCAGUCCAUACU [ArgBX 3]", "number": 14}
{"primarySequence": "CCUAUGCAGUCGGCCGCCACUGAGUCCUCAAUAAUAAAUUAUUAUACAUGAGGAUCACCCAUGUACAGGACCGGGACUGUAUAGG [Ex Tryptophan B 14]", "number": 244}
{"primarySequence": "GACGCAUGAGUUGUAACAGCUCAUGGGUCGCGAGGACCGGUACGGCCGCCACUCGGCUGUACAUGAGGAUCACCCAUGUCAGGGU [#1 Same State - Tryptophan A Attempt #29 (HarryS)]", "number": 1320}
{"primarySequence": "UGUAUGGACUGAAGGAGCGGAAGAUAGCUUGAGGAUCACCCAAGUAAUAAGGCGAAAGCCUUCCAGGUAGGUCGCAGUCCAUACU", "number": 43.1}
{"primarySequence": "GCACGACAUGAGGAUCACCCAUGUGCAGAUACCAGUAGGAUAUCCUACCCUUGGCAGCUGAGUGGAUCCGGAGGACCAUGGGUAA [Same State Theophylline A GF8]", "number": 61.7}
{"primarySequence": "UCAUAUUAGAUAGAUGUAAGGUAUCAUGAUACCAGUAGAUAAUUAUACCCUUGGCAGCAUAACAUGAGGAUCACCCAUGUACAUG [Aa]", "number": 22}
{"primarySequence": "AUACGGCGGUAAAAUCAGAGAGUAAAAGAUACCAGCAAUAAUAAAUGCCCUUGGCAGCUUCUGACAUGAGGAUCACCCAUGUAAA [theeternabot_exclusion_MS2_Theo_A_49]", "number": 18}
{"primarySequence": "GCCUCCAGCCGAAGGAGCGCUAGAAGGUGACAUGAGGAUCACCCAUGUGUGUGAUGUGGCUAGCAGGUAGGUCGCGGAGGAGGCA [Exclusion - Arginine B (Freestyle 22)]", "number": 105}
{"primarySequence": "UGGAUAAGGGUAAAUAGGAUAAGUACAGAAGGAGCGCGAAUAAACGCAGGUAGGUCGCUGGACAUGAGGAUCACCCAUGUAAAUG [Same State Arginine A GF 22]", "number": 77.1}
{"primarySequence": "CACGAAAGAUCGGCCGCCACUAGCCUGUGUGUACUAGCACAUGAGGAUCACCCAUGUUCUUGCGUUAGGACCGGGAUUGAGCGUG [#05 Exclusion Tryptophan B]", "number": 27.9}
{"primarySequence": "AUACACCUCGUCCAGGCAAUCUUUAGUGAUACCAGCUAACUCCGUGGCCCUUGGCAGCACAUGAGGAUCACCCAUGUGCGACAUC [Bioninen]", "number": 13.4}
{"primarySequence": "UUAGAUUGCCGAAGGAGCGAGAUAGCCUACAUGAGGAUCACCCAUGUAGAAACGGGCUGAUCUCAGGUAGGUCGCGGCAGGUAGC [Soaquatan]", "number": 27.4}
{"primarySequence": "AUAAUAAUACAUGAGGAUCACCCAUGUAUGCGAGGACCGGUACGGCCGCCACUCGACCUCAUGCAUACAUGAGGAUCACCCAUGU [Same State Tryptophan A 4]", "number": 55.8}

---

# System: MS2 coat protein
# protocolText: apparent KD of MS2 coat protein; designed switch direction (-1 OFF switch, 1 ON switch): -1; higher = weaker reporter binding
# conditionDescription: input ligand: none

{"primarySequence": "CAGUACUGAGGAUAUACAUGAGGAUCACCCAUGUAAUAAGGUUAGGAAACUAACCUAUGUAGAAGGCAGUACUG [Eli x3 4.07] (Eterna round: R97, puzzle: Exclusion 3)", "measurementTarget": "MS2 coat protein", "apparent KD of MS2 coat protein [nM]": 14.7}
{"primarySequence": "GAAUCGCAUGUUAGGAUAUAUCUGUCGGAGUAUGGAUAGAAGGGACAUGAGGAUCACCCAUGUGAAGGCCGUUC [Eternabot (L1) Solution 58] (Eterna round: R97, puzzle: Brourd's mod of Exclusion 4)", "measurementTarget": "MS2 coat protein", "apparent KD of MS2 coat protein [nM]": 90.1}
{"primarySequence": "AAUUUACAUGAGGAUCACCCAUGUGAGGAUAUGGAUUCGCUGGCCGUAGCCAGUGGAUCCAGAAGGCGCGUGAU [JL-ex1-4.28] (Eterna round: R97, puzzle: Exclusion 1)", "measurementTarget": "MS2 coat protein", "apparent KD of MS2 coat protein [nM]": 98.2}
{"primarySequence": "CAAUAGGGAGGAUAUCCAAUAUAUGACAUGAGGAUCACCCAUGUUUCCACUCGUACCUCCGGAGAAGGCCCAUAAG [Ex5 #6] (Eterna round: R97, puzzle: Exclusion 5)", "measurementTarget": "MS2 coat protein", "apparent KD of MS2 coat protein [nM]": 24.1}
{"primarySequence": "CAUUAUGUUGAGGAUAUGCGCCGGAAAACUGACGCAGAAGGCGACACAUGAGGAUCACCCAUGUCAGUUCGCGA [salish99_ex6_r004_424] (Eterna round: R97, puzzle: Exclusion 6)", "measurementTarget": "MS2 coat protein", "apparent KD of MS2 coat protein [nM]": 10.6}
